Listed compounds paired with reported pIC50
assaySystem: IDO1 (Homo sapiens (Human), UniProt P14902)
Sequence (P14902 whole entry): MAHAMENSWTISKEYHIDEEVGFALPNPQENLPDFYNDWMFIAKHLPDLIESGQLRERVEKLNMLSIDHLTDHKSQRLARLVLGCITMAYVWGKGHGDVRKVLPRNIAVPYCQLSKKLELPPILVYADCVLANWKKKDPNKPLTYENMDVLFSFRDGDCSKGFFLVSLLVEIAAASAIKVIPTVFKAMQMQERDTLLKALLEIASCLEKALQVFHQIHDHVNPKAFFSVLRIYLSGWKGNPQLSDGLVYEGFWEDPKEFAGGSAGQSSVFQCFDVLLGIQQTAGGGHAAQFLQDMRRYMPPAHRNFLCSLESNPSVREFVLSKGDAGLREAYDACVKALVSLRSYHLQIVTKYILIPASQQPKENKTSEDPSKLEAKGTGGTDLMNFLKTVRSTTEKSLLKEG
methodNotes: IDO1 Cellular Assay in Frozen HEK293 Cells Transiently Transfected with Human IDO1
Assay type: cell-based
conditionNotes: HEK293 cells transiently transfected with human IDO1; read-out: IDO1 HEK293 Cell Assay, IC50
Please report pIC50 as the negative decimal logarithm of the molar concentration, giving only the number.

Some entries whose results are on file:
In [3]: df
Out[3]:
                                entrysmiles                               assaysystem  experimentalreadout  measured
0  O=C(CSc1nonc1C(=NO)Nc1ccc(F)c(Br)c1)NC1CCC1  IDO1 (Homo sapiens (Human), UniProt P14902)                pIC50      7.01
1  COC(=O)C1(Sc2nonc2/C(=N/O)Nc2ccc(F)c(Br)c2)CCC1  IDO1 (Homo sapiens (Human), UniProt P14902)                pIC50      6.28
2      N#CCSc1nonc1/C(=N/O)Nc1ccc(F)c(Br)c1  IDO1 (Homo sapiens (Human), UniProt P14902)                pIC50      7.75
3  CC(=O)NCCSc1nonc1/C(=N/O)Nc1ccc(F)c(C)c1  IDO1 (Homo sapiens (Human), UniProt P14902)                pIC50      6.98

Read the next record carefully.
Data request: Give the reported pIC50 for N#Cc1cc(N/C(=N\O)c2nonc2SCCNC(=O)CO)ccc1F (system: IDO1 (Homo sapiens (Human), UniProt P14902)).
Data returned: 6.73

----------
assaySystem: UniProtKB P14902
methodNotes: IDO1 Human Whole Blood Assay
Type: cell-based
conditionNotes: LPS and IFNγ 100 ng/mL, kynurenine by LC/MS/MS
Listed compounds paired with reported log10 of IC50
Plainly stated, the numbers are log10 of IC50 given in nM.

Some entries whose results are on file:
>>> df
                                   compound       assaysystem  measured
0  CNC(=O)CSc1nonc1/C(=N/O)Nc1ccc(F)c(Br)c1  UniProtKB P14902      2.18
1  CC(C)(O)C(O)CSc1nonc1/C(=N/O)Nc1ccc(F)c(Br)c1 (centres unmarked) [Example 29]  UniProtKB P14902      2.89
2  N#Cc1cc(N/C(=N\O)c2nonc2SCCNS(=O)(=O)C2CC2)ccc1F  UniProtKB P14902      3.03
3  CC(C)(O)C(O)CSc1nonc1/C(=N/O)Nc1ccc(F)c(Cl)c1 (single isomer, unassigned) [Example 190]  UniProtKB P14902      3.14
4  N#Cc1cc(N/C(=N\O)c2nonc2SCCNC(=O)CO)ccc1F  UniProtKB P14902      2.72
5  CC(C)(O)C(O)CSc1nonc1/C(=N/O)Nc1ccc(F)c(Cl)c1 (single isomer, unassigned) [Example 189]  UniProtKB P14902      2.85

Data request: Which measured log10 of IC50 value corresponds to CNC(=O)CSc1nonc1/C(=N/O)Nc1ccc(F)c(C#N)c1 ?
Data returned: 2.60

Data request: Which measured log10 of IC50 value corresponds to O=c1cccc(CSc2nonc2/C(=N/O)Nc2ccc(F)c(Br)c2)[nH]1 ?
Data returned: 3.61

----------
Listed compounds paired with reported pIC50
assaySystem: IDO1 (Homo sapiens (Human))
methodNotes: IDO1 Cellular Assay in Hela Cells Stimulated with IFNγ
Type: cell-based
conditionNotes: Hela cells stimulated with IFNγ 100 ng/mL; read-out: IDO1 HELA Cell Assay, IC50
Please report pIC50 as the negative decimal logarithm of the molar concentration, giving only the number.

Data request: Which measured pIC50 value corresponds to O=C1NCC(CSc2nonc2/C(=N/O)Nc2ccc(F)c(Br)c2)O1 (stereo not drawn) ?
Data returned: 7.25

Data request: Which measured pIC50 value corresponds to C[C@@H](O)CNC(=O)CSc1nonc1/C(=N/O)Nc1ccc(F)c(Br)c1 ?
Data returned: 7.57

Data request: Which measured pIC50 value corresponds to CN1C(=O)NC[C@H]1CSc1nonc1/C(=N/O)Nc1ccc(F)c(Br)c1 ?
Data returned: 7.40

Data request: Which measured pIC50 value corresponds to CC(C)(O)[C@H](O)CSc1nonc1C(=NO)Nc1ccc(F)c(C#N)c1 ?
Data returned: 7.06

Data request: Which measured pIC50 value corresponds to CN/C(=C\[N+](=O)[O-])NCCSc1nonc1C(=NO)Nc1ccc(F)c(Br)c1 ?
Data returned: 6.82

----------
assaySystem: IDO1 (Homo sapiens (Human), UniProt P14902)
methodNotes: IDO1 Human Whole Blood Assay
Assay type: cell-based
conditionNotes: LPS and IFNγ 100 ng/mL, kynurenine by LC/MS/MS
experimentalReadout: IC50 (nM)
Answer with a number only, understood to be in nM.

>>> print(df.to_string())
                                   compound  measured
0  N#Cc1cc(N/C(=N\O)c2nonc2SC[C@@H]2CCC(=O)N2)ccc1F [Example 149]      1050
1  CC(C)(O)C(O)CSc1nonc1/C(=N/O)Nc1ccc(F)c(Br)c1 (stereo not drawn) [Example 30]       891
2  O=C(CSc1nonc1/C(=N/O)Nc1ccc(F)c(Br)c1)NC[C@H](O)CO [Example 175]      1720
3  CN1C(=O)NC[C@H]1CSc1nonc1/C(=N/O)Nc1ccc(F)c(C#N)c1 [Example 146]      1400
4  O=C(CSc1nonc1/C(=N/O)Nc1ccc(F)c(Br)c1)NC(CO)CO [Example 145]      1270

Data request: Which measured IC50 value corresponds to NC(=O)NCCSc1nonc1/C(=N/O)Nc1ccc(F)c(Br)c1 [Example 46] ?
Data returned: 239

Data request: Which measured IC50 value corresponds to CNC(=O)NCCSc1nonc1/C(=N/O)Nc1ccc(F)c(Br)c1 [Example 45] ?
Data returned: 405

Data request: Which measured IC50 value corresponds to OCC(O)CSc1nonc1/C(=N/O)Nc1ccc(F)c(Br)c1 (stereo not drawn) [Example 17] ?
Data returned: 441

Data request: Which measured IC50 value corresponds to O/N=C(\Nc1ccc(F)c(Br)c1)c1nonc1SCc1nnc[nH]1 [Example 191] ?
Data returned: 903

----------
assaySystem: IDO1 (Homo sapiens (Human))
methodNotes: IDO1 Cellular Assay in Frozen HEK293 Cells Transiently Transfected with Human IDO1
Format: cell-based
conditionNotes: HEK293 cells transiently transfected with human IDO1; read-out: IDO1 HEK293 Cell Assay, IC50
Classify: Condition met when IC50 is strictly less than 70 nM; Condition not met when IC50 is not.

Please review the entries below; each comes with its answer.
In [3]: df
Out[3]:
                                   compound         classlabel
0  CNC(=O)C1(CSc2nonc2/C(=N/O)Nc2ccc(F)c(Br)c2)CC1  Condition not met
1  COCCNC(=O)NCCSc1nonc1C(=NO)Nc1ccc(F)c(Br)c1      Condition met
2  CN1C(=O)NC[C@@H]1CSc1nonc1/C(=N/O)Nc1ccc(F)c(C#N)c1  Condition not met

Data request: Quick check: does CC(=O)N1CCC(Sc2nonc2/C(=N/O)Nc2ccc(F)c(Br)c2)CC1 have IC50 under 70 nM?
Data returned: Condition not met

Data request: Quick check: does CNC(=O)CSc1nonc1/C(=N/O)Nc1ccc(F)c(C#N)c1 have IC50 under 70 nM?
Data returned: Condition met

Data request: Quick check: does CC(O)CNC(=O)CSc1nonc1C(=NO)Nc1ccc(F)c(Br)c1 (stereo not drawn) have IC50 under 70 nM?
Data returned: Condition met

Data request: Quick check: does ON=C(Nc1ccc(F)c(Br)c1)c1nonc1SCc1nccs1 have IC50 under 70 nM?
Data returned: Condition not met

Data request: Quick check: does CC(=O)NCCSc1nonc1/C(=N/O)Nc1ccc(F)c(C(F)(F)F)c1 have IC50 under 70 nM?
Data returned: Condition met

----------
assaySystem: IDO1 (Homo sapiens (Human), UniProt P14902)
methodNotes: IDO1 Enzyme Assay
conditionNotes: IDO1 Enzyme Assay, IC50, nM, HIS-tagged recombinant IDO1, 40 nM
experimentalReadout: IC50 (nM)
Answer with a number only, understood to be in nM.

Some entries whose results are on file:
                                   compound                               assaysystem  experimentalreadout  unitslabel  measured
0   ON=C(Nc1ccc(F)c(Br)c1)c1nonc1SCCn1cncn1  IDO1 (Homo sapiens (Human), UniProt P14902)                 IC50          nM      31.4
1  ON=C(Nc1ccc(F)c(Br)c1)c1nonc1SCC1CCCNC1 (stereo not drawn)  IDO1 (Homo sapiens (Human), UniProt P14902)                 IC50          nM      95.7
2  O=C(CSc1nonc1/C(=N/O)Nc1ccc(F)c(Br)c1)NC1CC1  IDO1 (Homo sapiens (Human), UniProt P14902)                 IC50          nM      47.3
3    ON=C(Nc1ccc(F)c(Br)c1)c1nonc1SCc1nccs1  IDO1 (Homo sapiens (Human), UniProt P14902)                 IC50          nM      63.8

Data request: Which measured IC50 value corresponds to O=C(CSc1nonc1C(=NO)Nc1ccc(F)c(Br)c1)NCCO ?
Data returned: 54.2

Data request: Which measured IC50 value corresponds to CC(C)(O)C(O)CSc1nonc1/C(=N/O)Nc1ccc(F)c(Cl)c1 (single isomer, unassigned) [Example 189] ?
Data returned: 69.4
